Protein target, amino acids: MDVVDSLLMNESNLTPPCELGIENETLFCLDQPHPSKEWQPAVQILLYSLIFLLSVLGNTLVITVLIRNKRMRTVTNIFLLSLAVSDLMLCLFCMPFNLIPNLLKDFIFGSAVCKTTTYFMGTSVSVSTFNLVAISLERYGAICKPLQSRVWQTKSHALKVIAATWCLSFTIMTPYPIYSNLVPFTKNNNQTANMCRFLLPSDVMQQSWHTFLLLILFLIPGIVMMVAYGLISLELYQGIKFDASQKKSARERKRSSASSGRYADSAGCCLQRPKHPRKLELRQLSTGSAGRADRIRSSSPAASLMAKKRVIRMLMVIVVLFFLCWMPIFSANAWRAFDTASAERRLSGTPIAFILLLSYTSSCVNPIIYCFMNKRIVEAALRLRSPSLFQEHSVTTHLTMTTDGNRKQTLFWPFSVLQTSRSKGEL
endpoint: IC50 (µM)

• CCCCCN(CCCOC)C(=O)[C@@H](CCC(=O)O)NC(=O)c1ccc2ccccc2c1 [Compound 10] = 0.0062
• CCCCCN(CCOCC)C(=O)[C@@H](CCC(=O)O)NC(=O)c1ccc2ccccc2c1 [Compound 12] = 0.0093
• CCCCCN(CCCCC)C(=O)[C@H](CCC(=O)O)NC(=O)c1ccc(C)c(C)c1 [Compound 15] = 2.2
• CCCCCN(CCCCC)C(=O)[C@H](CCC(=O)O)NC(=O)c1ccc(Cl)c(Cl)c1 [Compound 14] = 0.45
